Target: Multidrug efflux pump subunit AcrB (Escherichia coli (strain K12))
Sequence (whole entry): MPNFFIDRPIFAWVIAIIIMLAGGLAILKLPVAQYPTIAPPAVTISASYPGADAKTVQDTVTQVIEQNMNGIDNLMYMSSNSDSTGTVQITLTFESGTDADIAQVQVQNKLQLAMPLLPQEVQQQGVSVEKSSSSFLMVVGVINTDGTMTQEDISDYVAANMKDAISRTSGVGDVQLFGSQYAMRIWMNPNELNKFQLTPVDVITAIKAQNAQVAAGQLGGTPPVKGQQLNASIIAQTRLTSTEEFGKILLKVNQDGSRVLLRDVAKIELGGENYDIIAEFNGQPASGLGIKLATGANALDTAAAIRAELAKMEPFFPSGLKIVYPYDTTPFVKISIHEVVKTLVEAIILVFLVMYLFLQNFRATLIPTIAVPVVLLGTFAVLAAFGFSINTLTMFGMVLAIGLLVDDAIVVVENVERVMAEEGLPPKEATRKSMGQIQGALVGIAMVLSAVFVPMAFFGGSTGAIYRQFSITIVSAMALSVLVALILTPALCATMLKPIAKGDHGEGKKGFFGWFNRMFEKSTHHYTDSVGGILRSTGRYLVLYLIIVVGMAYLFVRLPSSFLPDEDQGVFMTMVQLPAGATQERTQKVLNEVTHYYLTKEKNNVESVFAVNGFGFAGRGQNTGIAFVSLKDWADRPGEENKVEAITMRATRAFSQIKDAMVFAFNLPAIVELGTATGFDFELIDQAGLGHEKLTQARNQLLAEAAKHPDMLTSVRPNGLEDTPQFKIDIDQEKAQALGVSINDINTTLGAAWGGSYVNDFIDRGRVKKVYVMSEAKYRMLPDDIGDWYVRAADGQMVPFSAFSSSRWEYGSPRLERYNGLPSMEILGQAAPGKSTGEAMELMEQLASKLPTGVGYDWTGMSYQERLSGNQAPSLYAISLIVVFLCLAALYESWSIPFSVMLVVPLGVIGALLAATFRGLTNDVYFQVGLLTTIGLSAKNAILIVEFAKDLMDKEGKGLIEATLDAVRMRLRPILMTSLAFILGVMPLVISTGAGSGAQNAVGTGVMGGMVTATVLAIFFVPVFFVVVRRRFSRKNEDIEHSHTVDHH
Assay: Inhibition of AcrB in Escherichia coli BW25113 assessed as potentiation of chloramphenicol induced antibacterial activity by measuring chloramphenicol MIC at 16 ug/ml measured after 18 hrs by checkerboard titration method (reference value: 8 ug/ml)
Settings: dose 16.0 µg/ml
Would you mind telling me the reported MIC of each entry?
Give bare numbers, in µg/mL.

Answered cases to consult:
[[record]]
structure_string = "O=C(NCCc1ccc(O)c(O)c1)c1ccccc1O"
units_label = "µg/mL"
result_value = 8

[[record]]
structure_string = "Oc1ccc(CCCCc2ccccc2O)cc1O"
units_label = "µg/mL"
result_value = 8

[[record]]
structure_string = "Oc1ccc(CCCCc2cc3cccc4ccc5cccc2c5c43)cc1O"
units_label = "µg/mL"
result_value = 8

[[record]]
structure_string = "Oc1ccc(CCCCc2cc(O)c(O)c(O)c2)cc1O"
units_label = "µg/mL"
result_value = 8


Would you mind giving MIC for every compound in the list below?
1. Nc1ccccc1C(=O)NCCc1ccc(O)c(O)c1
2. Oc1ccc(CCCCc2ccc(Br)cc2)cc1O
3. Nc1cc(N)cc(C(=O)NCCc2ccc(O)c(O)c2)c1
4. O=C(NCCc1ccc(O)c(O)c1)c1ccc(C(F)(F)F)cc1
5. O=C(NCCc1ccc(O)c(O)c1)c1ccc(O)c(O)c1
6. O=C(NCCc1ccc(O)c(O)c1)c1ccc(Br)cc1

8
8
8
8
4
8

---

I'd be grateful if you could share measured MIC for these entries.
Biological target: Multidrug efflux pump subunit AcrB (Escherichia coli (strain K12))
Sequence (whole entry): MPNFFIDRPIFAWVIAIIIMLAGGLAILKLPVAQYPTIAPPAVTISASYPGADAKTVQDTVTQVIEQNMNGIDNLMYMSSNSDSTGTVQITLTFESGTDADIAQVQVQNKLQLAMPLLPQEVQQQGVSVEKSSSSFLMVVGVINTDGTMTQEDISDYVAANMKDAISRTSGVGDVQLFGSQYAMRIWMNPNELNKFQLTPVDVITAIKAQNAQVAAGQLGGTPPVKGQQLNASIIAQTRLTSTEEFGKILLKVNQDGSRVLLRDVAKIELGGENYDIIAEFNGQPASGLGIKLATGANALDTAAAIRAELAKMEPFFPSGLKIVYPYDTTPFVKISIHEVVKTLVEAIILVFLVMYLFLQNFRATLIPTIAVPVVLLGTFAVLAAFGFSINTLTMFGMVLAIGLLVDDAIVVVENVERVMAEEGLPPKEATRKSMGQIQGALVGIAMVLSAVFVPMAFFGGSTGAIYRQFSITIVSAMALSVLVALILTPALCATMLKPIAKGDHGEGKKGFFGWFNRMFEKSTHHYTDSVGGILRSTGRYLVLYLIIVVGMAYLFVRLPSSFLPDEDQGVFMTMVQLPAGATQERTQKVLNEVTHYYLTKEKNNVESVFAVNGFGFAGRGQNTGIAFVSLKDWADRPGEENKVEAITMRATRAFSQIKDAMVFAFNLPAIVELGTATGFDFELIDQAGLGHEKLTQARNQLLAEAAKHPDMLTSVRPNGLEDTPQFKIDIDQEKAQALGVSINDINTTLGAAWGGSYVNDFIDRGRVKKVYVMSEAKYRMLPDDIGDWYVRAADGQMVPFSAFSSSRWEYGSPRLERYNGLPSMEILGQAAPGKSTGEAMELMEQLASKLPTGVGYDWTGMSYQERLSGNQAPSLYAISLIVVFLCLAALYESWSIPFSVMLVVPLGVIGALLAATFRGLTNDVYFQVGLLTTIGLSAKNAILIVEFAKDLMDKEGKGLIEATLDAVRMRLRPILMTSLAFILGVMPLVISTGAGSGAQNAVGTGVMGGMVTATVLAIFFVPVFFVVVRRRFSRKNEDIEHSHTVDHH
Test: Inhibition of AcrB in Escherichia coli BW25113 assessed as potentiation of chloramphenicol induced antibacterial activity by measuring chloramphenicol MIC at 32 ug/ml measured after 18 hrs by checkerboard titration method (reference value: 8 ug/ml)
Conditions: dose 32.0 µg/ml
Numbers only, in µg/mL.

[[record]]
structure_string = "Nc1cc(N)cc(C(=O)NCCc2ccc(O)c(O)c2)c1"
units_label = "µg/mL"
result_value = 8

[[record]]
structure_string = "Oc1ccc(CCCCCCCc2ccc(O)c(O)c2)cc1O"
units_label = "µg/mL"
result_value = 8

[[record]]
structure_string = "Oc1ccc(CCCCCc2ccc(O)c(O)c2)cc1O"
units_label = "µg/mL"
result_value = 8

[[record]]
structure_string = "Oc1ccc(CCCCc2ccc(Br)cc2)cc1O"
units_label = "µg/mL"
result_value = 8


Look up MIC for the entries below, preserving their order.
1. Cc1ccc(C(=O)NCCc2ccc(O)c(O)c2)cc1
2. O=C(NCCc1ccc(O)c(O)c1)c1ccc(O)c(O)c1
3. Nc1ccccc1C(=O)NCCc1ccc(O)c(O)c1

8
4
8

---

Record form. Attribute: MIC. Fill in for each entry.
target: Multidrug efflux pump subunit AcrB (Escherichia coli (strain K12)) (UniProt P31224); experiment: Inhibition of AcrB in Escherichia coli BW25113 assessed as potentiation of levofloxacin induced antibacterial activity by measuring levofloxacin MIC at 32 ug/ml measured after 18 hrs by checkerboard titration method (reference value: 0.06 ug/ml); conditions: dose 32.0 µg/ml
Give bare numbers, in µg/mL.

Answered examples (10):
[[record]]
structure_string = "O=C(NCCc1ccc(O)c(O)c1)c1ccc(C(F)(F)F)cc1"
result_value = 0.06

[[record]]
structure_string = "O=C(NCCc1ccc(O)c(O)c1)c1ccc(Br)cc1"
result_value = 0.06

[[record]]
structure_string = "Oc1ccc(CCCc2ccc(O)c(O)c2)cc1O"
result_value = 0.06

[[record]]
structure_string = "C[C@H](Cc1ccc(O)c(O)c1)[C@@H](C)Cc1ccc(O)c(O)c1"
result_value = 0.06

[[record]]
structure_string = "Oc1ccc(CCCCc2ccc(Br)cc2)cc1O"
result_value = 0.06

[[record]]
structure_string = "O=C(NCCc1ccc(O)c(O)c1)c1ccccc1O"
result_value = 0.03

[[record]]
structure_string = "Oc1ccc(CCCCCCc2ccc(O)c(O)c2)cc1O"
result_value = 0.06

[[record]]
structure_string = "Cc1ccc(C(=O)NCCc2ccc(O)c(O)c2)cc1"
result_value = 0.06

[[record]]
structure_string = "O=C(NCCc1ccc(O)c(O)c1)c1cc(O)c(O)c(O)c1"
result_value = 0.03

[[record]]
structure_string = "O=C(NCCc1ccc(O)c(O)c1)c1ccc(O)c(O)c1"
result_value = 0.06


Report MIC for each item below.
1. Nc1ccc(C(=O)NCCc2ccc(O)c(O)c2)cc1
2. Oc1ccc(CCCCc2cc(O)c(O)c(O)c2)cc1O
3. Oc1ccc(CCCCCCCc2ccc(O)c(O)c2)cc1O
4. Oc1ccc(CCCCc2ccccc2O)cc1O

1: 0.06; 2: 0.06; 3: 0.06; 4: 0.06

For each of the molecules below, note its MIC.
1. Oc1ccc(CCCCc2ccc(O)c(O)c2)cc1O
2. Oc1ccc(CCCCCc2ccc(O)c(O)c2)cc1O
3. Oc1ccc(CCCCc2ccc(Cl)cc2)cc1O
4. Nc1cc(N)cc(C(=O)NCCc2ccc(O)c(O)c2)c1

[0.06, 0.06, 0.06, 0.06]

// for each molecule below, give its MIC
1. Oc1ccc(CCCCc2cc3cccc4ccc5cccc2c5c43)cc1O
2. Nc1ccccc1C(=O)NCCc1ccc(O)c(O)c1

1: 0.06; 2: 0.06

These measurements were taken from ChEMBL document CHEMBL4680134.
